- ASSAY_COMMENT: Compound exposure in wild-type mice (cerebellum and blood, mass spectrometry)
- STUDY_CONDITIONS: male, C57BL/6J, mouse, brain (cerebellum) and whole blood, intraperitoneal
PROPERTY_LABEL: Kp at 1 h

For the molecule shown here, CCOC(=O)C1=C(C)NC2=C(C(=O)OC2)[C@H]1c1ccccc1OC(F)F (single isomer, unassigned) [reference compound] , give the reported Kp at 1 h.
0.23

* * *

- ASSAYED_SYSTEM: human Cav1.2 (Homo sapiens)
- Sequence (Q13936 whole entry): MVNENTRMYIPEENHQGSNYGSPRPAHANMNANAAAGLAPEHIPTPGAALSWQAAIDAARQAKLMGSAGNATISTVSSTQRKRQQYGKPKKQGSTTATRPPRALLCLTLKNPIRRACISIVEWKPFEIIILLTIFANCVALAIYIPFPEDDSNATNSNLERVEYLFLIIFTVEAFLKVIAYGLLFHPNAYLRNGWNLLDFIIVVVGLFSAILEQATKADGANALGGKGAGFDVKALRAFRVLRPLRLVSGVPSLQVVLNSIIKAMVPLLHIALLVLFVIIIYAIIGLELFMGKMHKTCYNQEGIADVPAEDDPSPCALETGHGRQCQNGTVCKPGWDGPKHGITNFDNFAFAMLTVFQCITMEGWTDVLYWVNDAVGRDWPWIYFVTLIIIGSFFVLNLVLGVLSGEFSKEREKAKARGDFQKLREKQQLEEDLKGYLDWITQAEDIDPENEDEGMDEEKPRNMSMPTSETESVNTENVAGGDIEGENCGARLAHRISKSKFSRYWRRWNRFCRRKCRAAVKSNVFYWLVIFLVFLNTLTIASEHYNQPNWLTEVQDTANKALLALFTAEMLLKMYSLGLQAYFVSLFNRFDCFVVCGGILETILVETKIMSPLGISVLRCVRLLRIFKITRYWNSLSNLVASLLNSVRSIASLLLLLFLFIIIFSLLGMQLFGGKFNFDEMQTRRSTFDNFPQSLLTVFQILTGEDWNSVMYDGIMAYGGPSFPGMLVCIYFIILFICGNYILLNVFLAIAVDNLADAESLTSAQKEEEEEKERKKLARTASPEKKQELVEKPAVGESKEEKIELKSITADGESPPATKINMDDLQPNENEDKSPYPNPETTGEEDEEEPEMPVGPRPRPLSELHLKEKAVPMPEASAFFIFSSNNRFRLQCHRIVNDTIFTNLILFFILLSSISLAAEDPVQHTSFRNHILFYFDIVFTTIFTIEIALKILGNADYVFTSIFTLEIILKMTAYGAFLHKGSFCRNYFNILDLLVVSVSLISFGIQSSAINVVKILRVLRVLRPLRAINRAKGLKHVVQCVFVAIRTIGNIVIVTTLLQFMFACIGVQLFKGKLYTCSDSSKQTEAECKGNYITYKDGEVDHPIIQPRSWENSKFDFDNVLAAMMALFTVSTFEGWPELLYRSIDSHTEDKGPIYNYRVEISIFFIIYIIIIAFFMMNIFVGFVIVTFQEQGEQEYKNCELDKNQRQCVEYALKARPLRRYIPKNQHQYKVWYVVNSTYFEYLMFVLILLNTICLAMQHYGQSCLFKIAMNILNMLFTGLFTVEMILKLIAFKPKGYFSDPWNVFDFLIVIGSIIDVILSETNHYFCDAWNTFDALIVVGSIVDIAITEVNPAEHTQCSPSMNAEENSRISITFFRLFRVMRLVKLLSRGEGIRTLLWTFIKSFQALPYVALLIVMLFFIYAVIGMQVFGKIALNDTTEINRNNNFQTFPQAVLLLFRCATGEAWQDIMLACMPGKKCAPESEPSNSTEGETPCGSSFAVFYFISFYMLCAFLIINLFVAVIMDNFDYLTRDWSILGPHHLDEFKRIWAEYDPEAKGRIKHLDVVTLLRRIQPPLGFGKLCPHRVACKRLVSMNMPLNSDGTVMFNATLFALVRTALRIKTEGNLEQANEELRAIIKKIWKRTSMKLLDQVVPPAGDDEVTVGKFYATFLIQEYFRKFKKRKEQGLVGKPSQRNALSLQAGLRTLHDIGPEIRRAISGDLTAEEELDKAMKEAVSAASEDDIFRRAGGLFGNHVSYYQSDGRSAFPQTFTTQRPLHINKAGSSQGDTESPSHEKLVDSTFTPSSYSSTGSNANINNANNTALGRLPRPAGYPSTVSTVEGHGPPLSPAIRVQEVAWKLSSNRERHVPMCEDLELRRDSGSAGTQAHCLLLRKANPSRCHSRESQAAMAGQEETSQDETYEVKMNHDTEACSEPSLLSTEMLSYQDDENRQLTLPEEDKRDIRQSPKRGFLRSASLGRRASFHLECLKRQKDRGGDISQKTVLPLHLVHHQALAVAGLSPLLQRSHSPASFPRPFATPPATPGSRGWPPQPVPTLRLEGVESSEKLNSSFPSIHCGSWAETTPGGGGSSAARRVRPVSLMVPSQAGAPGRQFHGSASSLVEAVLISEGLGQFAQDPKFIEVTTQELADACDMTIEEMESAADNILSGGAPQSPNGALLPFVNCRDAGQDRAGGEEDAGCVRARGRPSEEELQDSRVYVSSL
- Sequence (Q9NY47 19-1001 partner limits assumed): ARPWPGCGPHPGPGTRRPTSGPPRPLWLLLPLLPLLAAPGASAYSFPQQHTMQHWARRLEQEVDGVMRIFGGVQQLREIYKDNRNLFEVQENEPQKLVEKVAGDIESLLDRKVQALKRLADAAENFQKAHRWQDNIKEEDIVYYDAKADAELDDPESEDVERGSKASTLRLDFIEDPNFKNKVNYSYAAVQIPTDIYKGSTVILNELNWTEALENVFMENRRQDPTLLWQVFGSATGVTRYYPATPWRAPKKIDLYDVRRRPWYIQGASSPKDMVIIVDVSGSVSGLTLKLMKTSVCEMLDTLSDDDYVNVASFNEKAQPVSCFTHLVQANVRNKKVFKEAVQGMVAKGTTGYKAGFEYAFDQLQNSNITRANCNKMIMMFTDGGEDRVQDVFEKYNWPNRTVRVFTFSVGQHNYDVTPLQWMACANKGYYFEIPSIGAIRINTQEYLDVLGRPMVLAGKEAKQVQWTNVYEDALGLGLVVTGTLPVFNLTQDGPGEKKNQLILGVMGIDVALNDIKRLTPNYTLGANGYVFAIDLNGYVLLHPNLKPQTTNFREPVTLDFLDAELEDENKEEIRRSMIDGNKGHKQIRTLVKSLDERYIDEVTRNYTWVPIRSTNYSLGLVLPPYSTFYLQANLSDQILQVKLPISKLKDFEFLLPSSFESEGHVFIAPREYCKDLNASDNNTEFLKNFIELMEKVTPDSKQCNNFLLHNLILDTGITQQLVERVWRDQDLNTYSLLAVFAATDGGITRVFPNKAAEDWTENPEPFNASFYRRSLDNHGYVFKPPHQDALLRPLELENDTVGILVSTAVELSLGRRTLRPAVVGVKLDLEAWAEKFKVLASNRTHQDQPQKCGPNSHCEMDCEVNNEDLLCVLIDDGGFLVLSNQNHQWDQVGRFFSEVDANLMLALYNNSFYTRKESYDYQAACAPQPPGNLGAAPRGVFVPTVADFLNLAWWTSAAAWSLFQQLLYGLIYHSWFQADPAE
- Sequence (Q9NY47 1002-1150 partner limits assumed): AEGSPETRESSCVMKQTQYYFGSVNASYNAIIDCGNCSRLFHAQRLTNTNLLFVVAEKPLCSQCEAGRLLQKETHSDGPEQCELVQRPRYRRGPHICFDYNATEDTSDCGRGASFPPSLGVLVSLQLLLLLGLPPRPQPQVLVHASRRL
- Sequence (Q08289 whole entry partner): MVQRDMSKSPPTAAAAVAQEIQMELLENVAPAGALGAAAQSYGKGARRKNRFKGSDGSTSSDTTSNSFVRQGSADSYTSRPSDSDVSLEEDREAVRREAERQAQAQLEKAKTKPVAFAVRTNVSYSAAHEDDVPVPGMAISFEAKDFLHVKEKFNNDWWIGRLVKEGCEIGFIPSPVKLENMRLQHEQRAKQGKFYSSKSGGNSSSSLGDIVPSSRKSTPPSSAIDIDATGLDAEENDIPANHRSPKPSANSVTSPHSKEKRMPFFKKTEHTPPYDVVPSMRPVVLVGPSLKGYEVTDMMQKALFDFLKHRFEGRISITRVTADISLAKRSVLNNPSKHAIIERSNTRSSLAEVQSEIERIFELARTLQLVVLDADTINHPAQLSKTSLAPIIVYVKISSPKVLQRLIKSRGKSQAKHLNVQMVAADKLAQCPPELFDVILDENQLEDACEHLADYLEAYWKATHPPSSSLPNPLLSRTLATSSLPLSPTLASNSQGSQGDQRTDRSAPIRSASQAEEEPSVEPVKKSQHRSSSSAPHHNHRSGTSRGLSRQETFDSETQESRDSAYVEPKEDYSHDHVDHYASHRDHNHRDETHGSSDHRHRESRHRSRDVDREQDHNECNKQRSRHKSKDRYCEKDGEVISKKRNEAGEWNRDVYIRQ
- ASSAY_COMMENT: Sophion QPatch whole-cell voltage clamp dose-response assay, Cav1.2-HEK293(AUX) cell line (barium currents)
- STUDY_CONDITIONS: maximal fold change of peak inward current
We use 2 as the dividing line for QPatch Emax: on or above the line is criterion met, below is criterion not met.

Record excerpt, results attached:
[[record]]
compound = "COC(=O)C1=C(C)NC2=C(C(=O)OC2)[C@H]1c1cc(F)cc(F)c1[C@H]1CC1(F)F (single isomer, unassigned) [Example 6]"
category = "criterion met"

[[record]]
compound = "COC(=O)C1=C(C)NC2=C(C(=O)OC2)[C@H]1c1cc(F)cc(F)c1C(C)C (single isomer, unassigned) [Example 18]"
category = "criterion met"

[[record]]
compound = "COC(=O)C1=C(C)NC2=C(C(=O)OC2)[C@H]1c1cccc(F)c1[C@@H](F)CF (single isomer, unassigned) [Example 11]"
category = "criterion not met"

[[record]]
compound = "COC(=O)C1=C(C)NC2=C(C(=O)OC2)[C@H]1c1cccc(F)c1C1CC1 (single isomer, unassigned) [Example 4]"
category = "criterion met"

[[record]]
compound = "COC(=O)C1=C(C)NC2=C(C(=O)OC2)[C@H]1c1cc(F)cc(F)c1[C@H]1CC1(F)F (single isomer, unassigned) [Example 5]"
category = "criterion met"


Does the reported QPatch Emax for COC(=O)C1=C(C)NC2=C(C(=O)OC2)[C@H]1c1cc(F)cc(F)c1[C@@H](C)F (single isomer, unassigned) [Example 7] fall at or above the 2 mark?
criterion not met
